These entries and their values trace back to paper PMC4522399.

experiment: in vivo; settings: male, Balb/c, mouse, iv, 0.08 mmol/kg
Observable: Tmax (min)
Use min as the unit, but write only the number.

Exercise: Report Tmax for NC(=O)c1ncn([C@@H]2O[C@H](CO)[C@@H](O)[C@H]2O)n1 [ribavirin, Ribavirin] please.
Key: 30
